Where these numbers come from: a melting point compilation (Tetko et al.; mined from patent text by program, amines drawn as free bases though some values may be those of a salt)

Assignment: determine reported melting point for the given molecules.

For this molecule ( COCCCNc1nc(N)c(C(=O)c2ccccc2[N+](=O)[O-])s1 ), measured melting point is 170 to 172 °C

The molecule identified as CC1(C)Sc2ccccc2C(Cl)=C1C=O registered its melting point at 49 to 52 °C

// melting point value for CCCC(=O)c1c[nH]c2c(N3C(=O)c4ccccc4C3=O)cccc2c1=O : 318 to 320 °C

Looking up CCOC(=O)CCCOc1ccc2c(c1)C[C@@H](NC(=O)OC(C)(C)C)CC2 , I see its melting point listed as 96 to 98 °C

In plain terms, CCCn1nc(C(N)=O)cc1CC has a documented melting point of 105 to 106 °C

Summary for this molecule, Cc1ccc(-n2nc(C(C)(C)C)cc2NC(=O)c2cccc3cc(Oc4cc(Cl)ncn4)ccc23)cc1 : melting point is 163 to 164 °C

Input CCOC(=O)C(=O)NNc1ccc([N+](=O)[O-])cc1 . Output melting point: 187 to 188 °C

Record O=C(O)c1cnc(Cl)cc1C(F)(F)F . Reported melting point: 115 to 117 °C

Entry O=C1Nc2ccccc2CCC1NC(CCc1ccccc1)C(=O)OCc1ccccc1 (stereo unspecified) , melting point reported as 139 to 141 °C

Per the records, this molecule ( O=C(Nn1cnnc1)C1=NN(c2ccc(Cl)cc2Cl)C(c2ccc(Cl)cc2)C1 (stereo unspecified) ) has melting point equal to 134 to 138 °C

melting point recorded for this molecule, CCCN(CCC)C(=O)C1CSc2ccc(N)cc21 (stereo unspecified) , is 100 °C

###

METRIC_NAME: melting point

melting point in this record for O=C(Nc1ccc(Oc2ccccc2)cc1)Nc1ccc(C(F)(F)F)cc1 : 211 to 213 °C

// melting point value for Cc1noc(-c2cn(-c3cccc(-c4ccccc4OC(F)(F)F)c3)cn2)n1 : 142 to 144 °C

Entry O=S1(=O)c2ccccc2C=Cc2ccc(C=Nc3ccccc3)cc21 — recorded melting point = 184 to 185 °C

Record Cc1cnccc1-c1sc(NC(=O)c2ccncc2)nc1-c1ccco1 . Reported melting point: 156 to 157 °C

Form: molecule = Cc1ccc(C(=O)NCC(O)CO)cc1-n1c(C)cc(OCc2ccccc2CNC(=O)Nc2cc(C(C)(C)C)nn2-c2ccc(O)c(Cl)c2)c(Cl)c1=O (configuration not stated) ; melting point = 173 to 175 °C

// recorded melting point for O=C(Nc1ccccc1)c1cscc1Cl : 119 to 121 °C

Memo: CC(=O)OC/C(=C(\C(=O)N(C)CC(C)(C)S)c1ccc(F)cc1)c1ccc(S(C)(=O)=O)cc1 , reported melting point: 45 to 47 °C

Reported melting point ( COC(=O)C1=C(C(=O)OC)C(N)C2=C(c3cc4ccccc4s3)N=NC2=N1 (configuration not stated) ) = 218 to 220 °C

Entry COc1ccccc1Cc1n[nH]c2c1c(=O)n(-c1cccc(OC(F)(F)F)c1)c1ncccc21 , melting point reported as 243 to 245 °C

melting point measured on CCCCCCCCCCCCCCCCCCOc1ccc(OCCCc2ccccc2)c(C(=O)N(CC(=O)OCC)CC(=O)OCC)c1 = 54 to 55 °C

Reported melting point ( CCOc1nc(SC)nc(N2CCS(=O)CC2)c1C=O ) = 163 °C

In plain terms, CCCCCCCCCCCCOC(=O)CS(=O)(=O)Nc1c(C(C)C)cccc1C(C)C has a documented melting point of 58 to 59 °C

# melting point of O=c1ccn(-c2ccccc2Cl)nc1-c1ccnn1-c1ccccc1 = 138 to 139 °C

Record CC=CC=CCOC(=O)C1=C(C)NC(C)=C(C(=O)OC)C1c1cccc(C(F)(F)F)c1 (configuration not stated) , field melting point: 130 to 131 °C

Data point: CCOC(=O)C(=CNc1ccc(COC(C)=O)cc1I)C(=O)OCC ; melting point = 128 to 131 °C

// melting point lookup, molecule = CN1CCN(c2ncnc3oc(-c4ccc(N)cc4)c(-c4ccc(F)cc4)c23)CC1 , result: 214 to 215 °C

The molecule listed as N#Cc1cc2c(nc1Cl)CCCCC2 has a reported melting point of 126 to 127 °C
